- Tested on: glycogen synthase kinase-3 (GSK3A per assay name; protocol says GSK3B)
- EXPERIMENT_NOTES: GSK3 binders on small-molecule microarrays, primary screen, biochemical, small-molecule microarray, 635 nm fluorescence, GSK3A (AID 1103); note: the record names both GSK3A and GSK3B
- CONDITION: small-molecule microarray binding, fluorescence 635 nm; higher = more signal
Task for the reader: assign each of the following molecules its reported composite z-score.
One number for each entry.

// worked examples, composite z-score included
C=CCOC(=O)[C@H]1[C@@H]2C(=O)O[C@@H](c3ccccc3)[C@@H](c3ccccc3)N2[C@@H](c2ccc(OCCOC(=O)[C@@H]3C[C@@H]4C(=O)N[C@@H](Cc5ccccc5)C(=O)N4[C@@H]3c3ccc(O)cc3)cc2)[C@]12C(=O)Nc1ccc(I)cc12    0.606
[N-]=[N+]=Nc1ccccc1C[C@]1(C(N)=O)COC(c2ccc(OCCCO)cc2)=N1    -0.51

Query string: API: value(readout=composite z-score, system=glycogen synthase kinase-3 (GSK3A per assay name; protocol says GSK3B)) for record "CC[C@@H]1C=C(C(=O)O)[C@H](c2cccc(Cl)c2)N1S(=O)(=O)c1ccc(C)cc1"
Result string: 0.46

----------
- EXPERIMENT_NOTES: modulators of S6 phosphorylation in cells, primary screen, cell-based, A549, cytoblot, luminescence, serum-stimulated (AID 1158);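 note: serum-stimulated A549 lung adenocarcinoma cells; signal is phosphorylated S6 detected by cytoblot immunostaining with HRP secondary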
- CONDITION: A549 phospho-S6 cytoblot, 5 h, higher = more signal
Assign t whenever z-score does not fall below -0.04; assign f whenever it does.

Examples from the recorded data:
C=C[C@@H](CO)NS(=O)(=O)c1ccc(Br)cc1    t
C=CC[C@H](O)c1ccc(O)c2ccccc12    f
CN(C)CCCCCCNC(=O)[C@@H]1C[C@@H]2C(=O)N[C@@H](CCCC[N+](C)(C)C)C(=O)N2[C@@H]1c1cccc(OCCO)c1    t

Query string: Say whether "C=C(C(=O)CC[C@@H](OC(=O)c1ccccc1-c1ccccc1C(=O)O)c1ccc(CO)o1)C(C)C" shows z-score of -0.04 or more.
Result string: f

Query string: Proceed to CC(CO)N1C(=O)[C@@H]2[C@H]3C(=O)OCC=C[C@H]3OC23C=CCN(c2ccc4ccccc4c2)C(=O)[C@@H]13 (stereo partly specified)
Result string: f

Query string: Proceed to "C=CCNC(=O)[C@@H]1[C@H]2C(=O)O[C@H](c3ccccc3)[C@H](c3ccccc3)N2[C@H](c2ccc(OCCO)cc2)[C@@]12C(=O)Nc1ccc(C#CCNC(N)=O)cc12"
Result string: t

Query string: Proceed to CC1(C)OB(/C=C\CC(OC(=O)c2ccncc2)c2ccccc2)OC1(C)C (stereo unspecified)
Result string: f

Query string: Proceed to COC(=O)C1=CC(c2ccc(CO)cc2)=CC(C2CC2)N(Cc2cc3c(cc2Br)OCO3)C=C1C(=O)OC (stereo unspecified)
Result string: f

Query string: Proceed to "COCCOC(=O)N1C(=O)[C@@]2(c3cc(C#CCCO)ccc31)[C@H](c1ccc(O)cc1)N1[C@H](c3ccccc3)[C@H](c3ccccc3)OC(=O)[C@H]1[C@@H]2C(=O)NC[C@H](O)c1ccccc1"
Result string: t

Query string: Proceed to "O=C1OC[C@@H](c2ccccc2)n2cc(/C=C/c3ccccc3)cc21"
Result string: t

Query string: Proceed to CCOC(=O)C1=CCC(c2cccn2C(=O)OC(C)(C)C)N(S(=O)(=O)c2ccc(C)cc2)C1 (stereo unspecified)
Result string: f

Query string: Proceed to "CCCCC(=C=CC[C@H](O)c1cccc(OCCO)c1)C[C@H](O)c1cc(Cl)cc(Cl)c1O"
Result string: t

Query string: Proceed to "CCCNC(=O)[C@@]1(Sc2ccc(C)cc2)CC(=O)N(Cc2cc(C(F)(F)F)cc(C(F)(F)F)c2)[C@@H]1c1ccc(CO)cc1"
Result string: t

----------
- EXPERIMENT_NOTES: basal RPMI8226 viability, no added stimulus, profiling panel, cell-based, calcein-AM fluorescence, 48 h, PK04 Diversity Set (AID 1166);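 note: cells grown under basal conditions without added stimulus; test concentration not given here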
- CONDITION: RPMI8226 myeloma viability, higher = more signal
Task for the reader: assign each of the following compounds its reported z-score.
Numbers only.

CC1C2C(CCCO)=CC(C3C(=O)N(C(N)=O)C(=O)C23)N1Cc1cccc(OC(F)(F)F)c1 (stereo not given)    0.244
[N-]=[N+]=Nc1ccccc1C[C@@]1(C(=O)NCC(O)CO)N=C(c2ccc(OCCCO)cc2)O[C@@H]1c1ccccc1N=[N+]=[N-] (stereo not given in full)    -3.85
COC(=O)[C@]1(Cc2ccccc2CN=[N+]=[N-])N=C(c2ccc(OCCCO)cc2)O[C@@H]1c1ccccc1N=[N+]=[N-]    -4

Provide z-score values for the following items, in order.
1. CCCC1(C(=O)OC)C=C2C(=C(C(C)C)C(=O)C2C)CN1 (stereo not given)
2. CCOC(=O)C[C@H]1[C@H](OC(=O)c2ccccc2-c2ccccc2)[C@@H](NC(=O)CC(C)C)c2cc(OCCCO)ccc2N1C(=O)c1ccccc1
3. N#Cc1ccc(NN2C(C(O)c3ccc(B(O)O)cc3)C=CC3CN(c4ccccc4)C(=O)C32)cc1 (stereo not given)
4. Cc1ccc(S[C@]2(C(=O)NCCN3CCOCC3)CC(=O)N(C(C)C)[C@@H]2c2ccc(CO)cc2I)cc1

Result string:
[-0.316, 0.107, -1.29, -1.47]

----------
Task for the reader: assign each of the following compounds its reported z-score.
- EXPERIMENT_NOTES: splicing luciferase reporter signal modulators, primary screen, spliceosome inhibition project, cell-based, HEK293, splice +/- reporter (AID 1101);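 note: HEK293 cells carrying a splicing-competent luciferase reporter gene; test concentration not given here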
- CONDITION: luminescence, 24 h, higher = more signal, called active from +8 up or from −8 down
Numbers only.

CN1C(=O)C2C(C1=O)C1C=C(CCCO)C2C(C2CC2)N1C (configuration not stated)    -0.89
CC1CC/C=C\[C@H]2OC34C=CCN(CCN5CCOCC5)C(=O)[C@H]3N(C(CO)C(C)C)C(=O)[C@@H]4C2C(=O)O1 (some centres not stated)    -0.192
COCCOC(=O)N1C(=O)[C@@]2(c3cc(C#CCC(C(=O)OC)C(=O)OC)ccc31)[C@H](c1ccc(O)cc1)N1[C@H](c3ccccc3)[C@H](c3ccccc3)OC(=O)[C@H]1[C@@H]2C(=O)N1CCc2cc(OC)c(OC)cc2C1    0.0333

Provide z-score values for the following items, in order.
1. O=C(NCC(F)(F)F)[C@@H]1c2ccccc2C(=O)N(Cc2cc(C(F)(F)F)cc(C(F)(F)F)c2)[C@H]1c1ccc(CO)cc1
2. COC(=O)C1=CC(c2ccc(CO)cc2)=CC(C2CC2)N(Cc2cc3c(cc2Br)OCO3)C=C1C(=O)OC (configuration not stated)
3. [N-]=[N+]=NCc1ccccc1[C@H]1OC(c2ccc(OCCCO)cc2)=N[C@@]1(CCS(=O)(=O)c1ccccc1)C(=O)O
4. CC(C)N1C(=O)[C@@]2(Cc3ccccc31)c1ccccc1C(=O)N(Cc1ccccc1)[C@H]2c1ccc(CO)cc1

Result string:
0.245
1.17
0.436
0.144

----------
- EXPERIMENT_NOTES: PSAC antagonists in infected red cells, primary screen, cell-based, P. falciparum Indochina, OD700, 2 h (AID 1155);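 note: lysis reports solute entry through the parasite surface anion channel PSAC; channel blockers reduce lysis of infected cells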
- CONDITION: P. falciparum Indochina infected erythrocytes, osmotic lysis OD700; higher = more signal, called active from +8 up or from −8 down
ASSAY_METRIC: z-score
Give bare numbers.

C=CC[C@H](O)c1ccc(O)c(F)c1    0.131
C=CCN1C(=O)[C@]2(O[C@H](CCO)[C@@H]([Si](C)(C)c3ccc(OC)cc3)[C@@H]2C)c2cc(N3C(=O)c4ccccc4Oc4ccccc43)ccc21    2.82
O=C1c2ccccc2[C@](Cc2ccccc2I)(C(=O)NCCN2CCOCC2)[C@H](c2ccc(CO)cc2)N1Cc1ccccc1C(F)(F)F    1.13

For the next question, use this compound.
Query string: // z-score lookup, key: COc1ccc(NN2C(C(O)c3ccccc3)C=CC3C(=O)N(C4CCCCC4)C(=O)C32)cc1 (centres undefined)
Result string: 2.25

----------
- EXPERIMENT_NOTES: adipocyte viability effects, profiling panel, cell-based, 3T3-L1 adipocytes, calcein-AM fluorescence, 48 h, basal (AID 1163); note: test concentration not given here
- CONDITION: 3T3-L1 adipocytes viability, higher = more signal
Task for the reader: assign each of the following compounds its reported z-score.
One number for each entry.

CCCN1C(=O)[C@@]2(c3ccc([N+](=O)[O-])cc3)CC(=O)N(C3CCCCC3)[C@@H]2c2ccc(CO)cc21    -0.952
COc1cc(Cc2cc3c(c(CCc4ccccc4)n2)[Si](C(C)C)(C(C)C)O[C@H]3c2ccccc2)cc(OC)c1OC    -0.515
COc1ccc([Si](C)(C)[C@H]2[C@H](CC(=O)N3CCC[C@H]3CO)O[C@@]3(C(=O)N(Cc4cccc(N5CCCCC5=O)c4)c4ccccc43)[C@@H]2C)cc1    0.112
[N-]=[N+]=Nc1ccccc1C[C@]1(C(N)=O)COC(c2ccc(OCCCO)cc2)=N1    0.936
CC[C@@H](O[Si](C#C[Si](C(C)C)(C(C)C)C(C)C)(C(C)C)C(C)C)c1cn([C@H](C)c2ccccc2)nn1    -0.685
COC(=O)[C@@]1(Cc2ccccc2)[C@H]2c3cc(C(=O)N(C)C)n(Cc4nc5ccccc5[nH]4)c3C[C@H]2CN1C(=O)c1ccccc1    -0.232
C=CCC(OC(C)=O)[C@@H]1[C@@H](N(Cc2ccc(-c3ccccc3)cc2)C(=O)Cc2ccc(OC)cc2)c2cc(OCCCO)ccc2N1C(=O)Cc1ccc(OC)cc1 (stereo not given in full)    0.9
C[C@@]1([C@@H](NS(=O)(=O)c2cccc3cccnc23)c2ccc(-c3ccccc3)cc2)C[C@H]1C1CCCCC1    -0.516

Provide z-score values for the following items, in order.
1. COC(=O)[C@@]1(Cc2ccccc2)[C@H]2c3cc(C(=O)N(C)C)n(Cc4ccc(Cl)c(C(F)(F)F)c4)c3C[C@H]2CN1C(=O)c1ccccc1
2. CCCCCN1CC=CC23O[C@@H]4/C=C\CCCOC(=O)C4[C@H]2C(=O)N(CCO)[C@@H]3C1=O (stereo not given in full)
3. COc1ccc(C(=O)Nc2ccc(CN3C(=O)[C@]4(O[C@H](CC(=O)N(CCO)Cc5ccccc5)[C@@H]([Si](C)(C)c5ccc(OC)cc5)[C@@H]4C)c4ccccc43)cc2)cc1
4. COc1c(C)cc(-c2cc3c(c(CCc4ccccc4)n2)[Si](C(C)C)(C(C)C)O[C@H]3c2ccccc2)cc1C
5. COc1ccc(C(O)C2C=CC3C(=O)N(C)C(=O)C3N2Nc2ccccc2)cc1 (stereo not given)
6. CCCCCN1CC=CC23O[C@@H]4/C=C\CCCOC(=O)C4[C@H]2C(=O)N(CCCCCO)[C@@H]3C1=O (stereo not given in full)
7. O=C1NC(=O)C2C1C=CC(C(O)c1ccc(F)cc1)N2Nc1ccc(Cl)cc1Cl (stereo not given)

Result string:
1. 0.562
2. 1.64
3. 1.19
4. -0.945
5. -0.221
6. 1.96
7. -0.275

Reference source: PubChem BioAssay
